Test system: longitudinal muscle sample (including myenteric plexus) prepared from the ileum
Measurement notes: Acetylcholine-release promoting action: contraction of electrically stimulated ileal longitudinal muscle in Magnus' tube
Set-up: species or system guinea pig
Measurement context: 10^-7M; increase ratio in contraction by electrical stimulation, isometrically recorded
# label = bin(measured Contraction increase rate (%)), where bins are lo: < 3%; med: ≥ 3% and < 5%; hi: ≥ 5%

> print(dat)
                                   molecule  class
1  CNC(NC1CC2COCC(C1)N2Cc1ccc(F)cc1)=C(C#N)C#N (stereo not shown)    med

Data request: Lab note: sort CNC(=O)NC1CC2COCC(C1)N2Cc1ccc(F)cc1 (stereo not shown) into the matching Contraction increase rate (%) band.
Data returned: med

Data request: Lab note: sort CCOC(=O)C(C#N)=C(NCC(C)C)NCC1CN(Cc2ccc(F)cc2)CCO1 (stereo not shown) into the matching Contraction increase rate (%) band.
Data returned: hi

Data request: Lab note: sort CNC(=O)NCC1CN(Cc2ccc(F)cc2)CCO1 (stereo not shown) into the matching Contraction increase rate (%) band.
Data returned: hi

Data request: Lab note: sort CCOC(=O)C(C#N)=C(NCC1CN(Cc2ccc(F)cc2)CCO1)Nc1ccccc1 (stereo not shown) into the matching Contraction increase rate (%) band.
Data returned: lo

Data request: Lab note: sort CNC(=C[N+](=O)[O-])NC1CC2COCC(C1)N2Cc1ccc(F)cc1 (stereo not shown) into the matching Contraction increase rate (%) band.
Data returned: med

Data request: Lab note: sort CCOC(=O)C(C#N)=C(NCCOCCNCc1ccc(F)cc1)NC1CCCCC1 into the matching Contraction increase rate (%) band.
Data returned: lo

Data request: Lab note: sort N#CC(C#N)=C(NCc1ccccc1)NCC1CN(Cc2ccc(F)cc2)CCO1 (stereo not shown) into the matching Contraction increase rate (%) band.
Data returned: med

Data request: Lab note: sort CCOC(=O)C(C#N)=C(NCC1CN(Cc2ccc(F)cc2)CCO1)NC1CCCCC1 (stereo not shown) into the matching Contraction increase rate (%) band.
Data returned: hi

Data request: Lab note: sort CNC(NC1CC2COCC(C1)N2CCCOc1ccc(F)cc1)=C(C#N)C#N (stereo not shown) into the matching Contraction increase rate (%) band.
Data returned: med

Data request: Lab note: sort CCOC(=O)C(C#N)=C(NCC1CN(Cc2ccc(F)cc2)CCO1)Nc1ccc(OC)cc1 (stereo not shown) into the matching Contraction increase rate (%) band.
Data returned: hi

###

Tested on: longitudinal muscle sample (including myenteric plexus) prepared from the ileum
Measurement notes: Acetylcholine-release promoting action: contraction of electrically stimulated ileal longitudinal muscle in Magnus' tube
Set-up: species or system guinea pig
Measurement context: 10^-5M; increase ratio in contraction by electrical stimulation, isometrically recorded
Protocol: Acetylcholine-release promoting action of the present compounds in the gastrointestinal tract was investigated according to the following procedure. A longitudinal muscle sample (including myenteric plexus) was prepared from the ileum excised from guinea pig and suspended in Magnus' tube. This sample was perfused in a physiological salt solution and stimulated by the electric current via platinum electrodes. […] This contraction was isometrically recorded. […]
# Contraction increase rate (%) per entry
Use % as the unit, but write only the number.

> print(dat)
                                   molecule  value.units  test.value
1  CCOC(=O)C(C#N)=C(NCc1ccccc1)NCC1CN(Cc2ccc(F)cc2)CCO1 (stereo not shown)            %        20.3

Data request: Fill in: Contraction increase rate (%) of CC(C)CNC(NCC1CN(Cc2ccc(F)cc2)CCO1)=C(C#N)C#N (stereo not shown) is ___
Data returned: 4.9

Data request: Fill in: Contraction increase rate (%) of CCOC(=O)C(C#N)=C(NCCOCCNCc1ccc(F)cc1)NC1CCCCC1 is ___
Data returned: 7.9

Data request: Fill in: Contraction increase rate (%) of CCOC(=O)C(C#N)=C(NCC1CN(Cc2ccc(F)cc2)CCO1)Nc1ccc(OC)cc1 (stereo not shown) is ___
Data returned: 11.8

Data request: Fill in: Contraction increase rate (%) of CCOC(=O)C(C#N)=C(NCC(C)C)NCC1CN(Cc2ccc(F)cc2)CCO1 (stereo not shown) is ___
Data returned: 32.4

Data request: Fill in: Contraction increase rate (%) of N#CC(C#N)=C(NCc1ccccc1)NCC1CN(Cc2ccc(F)cc2)CCO1 (stereo not shown) is ___
Data returned: 12.3

Data request: Fill in: Contraction increase rate (%) of CCOC(=O)C(C#N)=C(NCC1CN(Cc2ccc(F)cc2)CCO1)NC1CCCCC1 (stereo not shown) is ___
Data returned: 31.9

Data request: Fill in: Contraction increase rate (%) of N#CC(C#N)=C(NCC1CN(Cc2ccc(F)cc2)CCO1)NC1CCCCC1 (stereo not shown) is ___
Data returned: 5.3

Data request: Fill in: Contraction increase rate (%) of CNC(=C[N+](=O)[O-])NC1CC2COCC(C1)N2Cc1ccc(F)cc1 (stereo not shown) is ___
Data returned: 5.7

Data request: Fill in: Contraction increase rate (%) of N#CC(C#N)=C(NCc1ccc(F)cc1)NCC1CN(Cc2ccc(F)cc2)CCO1 (stereo not shown) is ___
Data returned: 15.0
